Data origin: patent US20070105837A1

target: butyrylcholinesterase (Homo sapiens); experiment: biochemical; conditions: read-out: Butyrylcholinesterase IC-50
pIC50: −log10 of the molar value. Structures can show the parent of a compound that is named as a salt.
// values below are reported pIC50

- COMPOUND: "C=CCNC(=S)N1CC[C@@]23C=C[C@@H](O)C[C@@H]2Oc2c(OC)ccc(c23)C1"
  OPERATOR_SYMBOL: "<"
  pIC50: 4.00
- COMPOUND: "COc1ccc2c3c1O[C@@H]1C[C@@H](N)C=C[C@]31CCN(C)C2 [Example 28, dihydrochloride]"
  OPERATOR_SYMBOL: "<"
  pIC50: 4.00
- COMPOUND: "COc1ccc2c3c1O[C@H]1C[C@@H](O)C=C[C@@]31CCN(C(=O)CCN1CCCC1)C2"
  OPERATOR_SYMBOL: "="
  pIC50: 5.62
- COMPOUND: "COc1ccc2c3c1O[C@H]1C[C@H](O)C=C[C@@]31CCN(CC=C(C)C)C2"
  OPERATOR_SYMBOL: "="
  pIC50: 4.70

###

// values below are reported IC50
target: butyrylcholinesterase (Homo sapiens); assay: biochemical
Structures can show the parent of a compound that is named as a salt.
REPORTED_PROPERTY: IC50 (nM)

- COMPOUND: "COc1ccc2c3c1O[C@@H]1C[C@@H](O)C=C[C@]31CC[N+](C)=C2"
  OPERATOR_SYMBOL: ">"
  NUMERIC_RESULT: 100000
- COMPOUND: "COc1cc(Br)c2c3c1O[C@@H]1C[C@@H](O)C=C[C@]31CCNC2"
  OPERATOR_SYMBOL: ">"
  NUMERIC_RESULT: 100000
- COMPOUND: "C=C(C)CN1CC[C@@]23C=C[C@H](O)C[C@@H]2Oc2c(OC)ccc(c23)C1 [Example 46, hydrochloride]"
  OPERATOR_SYMBOL: "="
  NUMERIC_RESULT: 340
- COMPOUND: "COc1cc(Br)c2c3c1O[C@H]1C[C@H](O)C=C[C@@]31CCNC2"
  OPERATOR_SYMBOL: ">"
  NUMERIC_RESULT: 100000
- COMPOUND: "COc1ccc2c3c1O[C@H]1C[C@@H](O)C=C[C@@]31CCN(CCCCN1CCCCC1)C2"
  OPERATOR_SYMBOL: "="
  NUMERIC_RESULT: 610
- COMPOUND: "COc1ccc2c3c1O[C@H]1C[C@@H](O)C=C[C@@]31CCN(CC(C)c1cccc(Oc3ccccc3)c1)C2 (some centres unmarked) [Example 32, hydrochloride]"
  OPERATOR_SYMBOL: "="
  NUMERIC_RESULT: 360
- COMPOUND: "COc1cc(Br)c2c3c1O[C@H]1C[C@@H](O)C=C[C@@]31CCN(CCN1CCOCC1)C2"
  OPERATOR_SYMBOL: "="
  NUMERIC_RESULT: 2700
- COMPOUND: "COc1ccc2c3c1O[C@H]1C[C@@H](O)C=C[C@@]31CCN(Cc1ccc(Br)cc1)C2"
  OPERATOR_SYMBOL: "="
  NUMERIC_RESULT: 0.6
- COMPOUND: "COc1ccc2c3c1O[C@@H]1C[C@H](O)C=C[C@]31CC[N+](C)=C2"
  OPERATOR_SYMBOL: ">"
  NUMERIC_RESULT: 100000
- COMPOUND: "CCN1CC[C@]23C=C[C@H](O)C[C@H]2Oc2c(OC)ccc(c23)C1"
  OPERATOR_SYMBOL: ">"
  NUMERIC_RESULT: 100000
- COMPOUND: "C=C(C)CN1CC[C@@]23C=C[C@@H](O)C[C@@H]2Oc2c(OC)ccc(c23)C1"
  OPERATOR_SYMBOL: ">"
  NUMERIC_RESULT: 100000

###

// values below are reported IC50
target: butyrylcholinesterase (Homo sapiens, UniProt P06276); assay: biochemical; conditions: read-out: Butyrylcholinesterase IC-50
Sequence (P06276 29-602): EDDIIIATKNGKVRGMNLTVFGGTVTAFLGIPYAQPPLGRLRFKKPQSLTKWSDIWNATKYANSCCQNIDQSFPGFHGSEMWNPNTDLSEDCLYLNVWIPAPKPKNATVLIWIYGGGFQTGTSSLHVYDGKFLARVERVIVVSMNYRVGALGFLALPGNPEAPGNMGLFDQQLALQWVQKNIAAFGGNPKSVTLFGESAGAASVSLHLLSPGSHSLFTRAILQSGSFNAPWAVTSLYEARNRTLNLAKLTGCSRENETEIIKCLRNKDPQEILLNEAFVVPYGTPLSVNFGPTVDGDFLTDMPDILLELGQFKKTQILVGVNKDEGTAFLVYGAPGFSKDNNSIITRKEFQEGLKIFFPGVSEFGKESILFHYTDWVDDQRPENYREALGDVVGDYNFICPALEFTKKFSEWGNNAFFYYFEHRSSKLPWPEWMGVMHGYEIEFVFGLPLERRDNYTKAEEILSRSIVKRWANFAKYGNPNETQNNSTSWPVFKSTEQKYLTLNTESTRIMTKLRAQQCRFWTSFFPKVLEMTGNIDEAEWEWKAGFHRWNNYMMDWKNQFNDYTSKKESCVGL
Counter-ions that a name gives are not always drawn.

- COMPOUND: "COc1ccc2c3c1O[C@H]1C[C@@H](O)C=C[C@@]31CCN(c1ncccn1)C2"
  OPERATOR_SYMBOL: ">"
  IC50 (µM): 100
- COMPOUND: "CCOC(=O)CCN1CC[C@@]23C=C[C@H](O)C[C@@H]2Oc2c(OC)ccc(c23)C1 [Example 47, hydrochloride]"
  OPERATOR_SYMBOL: "="
  IC50 (µM): 51
- COMPOUND: "CCOC(=O)CN1CC[C@@]23C=C[C@H](O)C[C@@H]2Oc2c(OC)ccc(c23)C1"
  OPERATOR_SYMBOL: "="
  IC50 (µM): 42
- COMPOUND: "COc1ccc2c3c1O[C@H]1C=C(C(C)C)C=C[C@@]31CCN(C)C2"
  OPERATOR_SYMBOL: "="
  IC50 (µM): 9
- COMPOUND: "COc1ccc2c3c1O[C@H]1C=C(C)C=C[C@@]31CCN(C)C2"
  OPERATOR_SYMBOL: "="
  IC50 (µM): 200
- COMPOUND: "COC(=O)CCC(=O)N1CC[C@]23C=C[C@@H](O)C[C@H]2Oc2c(OC)cc(Br)c(c23)C1"
  OPERATOR_SYMBOL: ">"
  IC50 (µM): 100

###

// values below are reported pIC50
target: butyrylcholinesterase (Homo sapiens, UniProt P06276); experiment: biochemical; settings: read-out: Butyrylcholinesterase IC-50
pIC50: −log10 of the molar value.
REPORTED_PROPERTY: pIC50

- SMILES_ENTRY: "COc1ccc2c3c1O[C@@H]1C[C@@H](O)C=C[C@]31CCN(/C(=N/C#N)SC)C2"
  MEASURED_TARGET: "butyrylcholinesterase (Homo sapiens, UniProt P06276)"
  REPORTED_PROPERTY: "pIC50"
  RESULT: "< 4.00"
- SMILES_ENTRY: "COc1ccc2c3c1O[C@H]1C[C@H](O)C=C[C@@]31CCN(CCN1CCOCC1)C2"
  MEASURED_TARGET: "butyrylcholinesterase (Homo sapiens, UniProt P06276)"
  REPORTED_PROPERTY: "pIC50"
  RESULT: "< 4.00"
- SMILES_ENTRY: "COc1ccc2c3c1O[C@@H]1C=C(c4ccccc4)C=C[C@@]31CCN(C)C2"
  MEASURED_TARGET: "butyrylcholinesterase (Homo sapiens, UniProt P06276)"
  REPORTED_PROPERTY: "pIC50"
  RESULT: 4.60
- SMILES_ENTRY: "CNC(=S)N1CC[C@]23C=C[C@H](O)C[C@H]2Oc2c(OC)cc(Br)c(c23)C1"
  MEASURED_TARGET: "butyrylcholinesterase (Homo sapiens, UniProt P06276)"
  REPORTED_PROPERTY: "pIC50"
  RESULT: "< 4.00"
- SMILES_ENTRY: "COc1ccc2c3c1O[C@@H]1C[C@@H](O)C=C[C@]31CCN(C(N)=O)C2"
  MEASURED_TARGET: "butyrylcholinesterase (Homo sapiens, UniProt P06276)"
  REPORTED_PROPERTY: "pIC50"
  RESULT: "< 4.00"
- SMILES_ENTRY: "COc1ccc2c3c1O[C@H]1C[C@@H](O)C=C[C@@]31CCN(C(=O)CN1CCCCC1)C2"
  MEASURED_TARGET: "butyrylcholinesterase (Homo sapiens, UniProt P06276)"
  REPORTED_PROPERTY: "pIC50"
  RESULT: "< 4.00"
- SMILES_ENTRY: "COc1ccc2c3c1O[C@H]1C[C@@H](O)C=C[C@@]31CCN(CCCN(C)C)C2"
  MEASURED_TARGET: "butyrylcholinesterase (Homo sapiens, UniProt P06276)"
  REPORTED_PROPERTY: "pIC50"
  RESULT: 5.68
- SMILES_ENTRY: "COc1ccc2c3c1O[C@H]1C[C@@H](O)C=C[C@@]31CCN(C(=O)CCC(=O)O)C2"
  MEASURED_TARGET: "butyrylcholinesterase (Homo sapiens, UniProt P06276)"
  REPORTED_PROPERTY: "pIC50"
  RESULT: "< 4.00"

###

// values below are reported IC50
molecular target: butyrylcholinesterase (Homo sapiens); assay: biochemical; conditions: read-out: Butyrylcholinesterase IC-50

- SMILES_ENTRY: "CNC(=S)N1CC[C@]23C=C[C@@H](O)C[C@H]2Oc2c(OC)cc(Br)c(c23)C1"
  MEASURED_TARGET: "butyrylcholinesterase (Homo sapiens)"
  IC50: "> 100 µM"
- SMILES_ENTRY: "C=CCNC(=S)N1CC[C@@]23C=C[C@@H](O)C[C@@H]2Oc2c(OC)cc(Br)c(c23)C1"
  MEASURED_TARGET: "butyrylcholinesterase (Homo sapiens)"
  IC50: "11 µM"
- SMILES_ENTRY: "COc1ccc2c3c1O[C@H]1C[C@@H](O)C=C[C@@]31CCN(C(=O)NC1CCCCC1)C2"
  MEASURED_TARGET: "butyrylcholinesterase (Homo sapiens)"
  IC50: "> 100 µM"
- SMILES_ENTRY: "COc1cc(Br)c2c3c1O[C@@H]1C[C@H](O)C=C[C@]31CCN(CCCN)C2"
  MEASURED_TARGET: "butyrylcholinesterase (Homo sapiens)"
  IC50: "> 100 µM"
